Entries and their measured pEC50 follow.
# measuredOn: CFTR (Homo sapiens, UniProt P13569)
# Sequence (P13569 with tags, fused parts or gaps DEL508-508): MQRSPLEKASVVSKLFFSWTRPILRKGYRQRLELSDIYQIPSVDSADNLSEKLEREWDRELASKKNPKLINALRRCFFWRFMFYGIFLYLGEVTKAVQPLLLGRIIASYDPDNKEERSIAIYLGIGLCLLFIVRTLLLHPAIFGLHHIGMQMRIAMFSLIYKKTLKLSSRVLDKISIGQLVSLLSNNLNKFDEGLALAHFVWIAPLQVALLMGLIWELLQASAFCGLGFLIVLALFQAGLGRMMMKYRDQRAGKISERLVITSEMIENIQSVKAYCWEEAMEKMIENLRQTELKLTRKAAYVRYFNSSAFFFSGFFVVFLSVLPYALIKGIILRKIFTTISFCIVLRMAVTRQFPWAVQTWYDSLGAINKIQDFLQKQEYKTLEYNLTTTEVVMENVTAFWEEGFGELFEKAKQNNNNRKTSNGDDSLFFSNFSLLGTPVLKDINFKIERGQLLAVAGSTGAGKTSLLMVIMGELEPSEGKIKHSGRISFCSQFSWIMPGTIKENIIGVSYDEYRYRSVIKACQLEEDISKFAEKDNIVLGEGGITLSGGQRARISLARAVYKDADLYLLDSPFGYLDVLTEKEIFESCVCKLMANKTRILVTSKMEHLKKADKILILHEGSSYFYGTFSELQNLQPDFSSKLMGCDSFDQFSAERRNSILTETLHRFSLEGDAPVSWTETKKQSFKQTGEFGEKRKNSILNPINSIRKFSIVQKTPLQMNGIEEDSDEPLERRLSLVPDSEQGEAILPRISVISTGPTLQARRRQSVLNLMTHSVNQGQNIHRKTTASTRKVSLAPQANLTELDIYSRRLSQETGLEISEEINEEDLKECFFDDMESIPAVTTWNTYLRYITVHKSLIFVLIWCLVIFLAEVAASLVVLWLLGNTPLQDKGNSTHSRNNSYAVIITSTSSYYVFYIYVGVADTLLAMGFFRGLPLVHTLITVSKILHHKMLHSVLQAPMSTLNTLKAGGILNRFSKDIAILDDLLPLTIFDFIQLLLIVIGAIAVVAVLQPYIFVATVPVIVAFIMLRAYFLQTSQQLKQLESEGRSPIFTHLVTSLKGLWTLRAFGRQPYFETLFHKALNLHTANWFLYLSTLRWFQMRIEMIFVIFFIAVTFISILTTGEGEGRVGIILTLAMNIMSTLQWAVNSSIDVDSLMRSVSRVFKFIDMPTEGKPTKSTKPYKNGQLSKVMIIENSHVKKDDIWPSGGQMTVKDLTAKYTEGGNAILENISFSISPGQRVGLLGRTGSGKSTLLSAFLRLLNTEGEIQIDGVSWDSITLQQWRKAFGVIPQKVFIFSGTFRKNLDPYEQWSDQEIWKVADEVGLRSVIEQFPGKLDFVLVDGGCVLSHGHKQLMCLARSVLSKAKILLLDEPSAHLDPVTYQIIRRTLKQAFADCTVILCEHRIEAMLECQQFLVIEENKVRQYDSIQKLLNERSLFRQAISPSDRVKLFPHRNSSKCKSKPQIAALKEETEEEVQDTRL
# protocolNotes: Membrane potential dye, Enteroid Assay A
# Assay type: cell-based
# recordedConditions: Table 6; human enteroid cells, 18-24 hours; acute 10 μM forskolin and 300 nM ivacaftor; read-out: Ent. A EC50
pEC50: −log10 of the molar value.

Input line: Read off the recorded pEC50 for Cc1cccc(C)c1-c1cc2nc(n1)NS(=O)(=O)c1cccc(c1)C(=O)N(C)[C@H](CC(C)C)C(c1ccc(C(C)(C)C)cn1)O2 (stereo in doubt)
Output line: > 6.00

New cases:
Input line: Read off the recorded pEC50 for Cc1cccc(C)c1-c1cc2nc(n1)NS(=O)(=O)c1cccc(c1)C(=O)N(C)CC(c1ccc(C3=CCN(C)CC3)cc1)O2 (centres unmarked)
Output line: 4.52 to 5.52

Input line: Read off the recorded pEC50 for `Cc1cccc(C)c1-c1cc2nc(n1)NS(=O)(=O)c1cccc(c1)C(=O)N(Cc1cnc3ccccn13)[C@H](CC(C)C)CO2`
Output line: > 6.00

Input line: Read off the recorded pEC50 for `COc1ccncc1CN1C(=O)c2cccc(c2)S(=O)(=O)Nc2nc(cc(-c3c(C)cccc3C)n2)OC[C@H]1CC(C)C`
Output line: > 6.00

Input line: Read off the recorded pEC50 for `Cc1cccc(C)c1-c1cc2nc(n1)NS(=O)(=O)c1cccc(c1)C(=O)N(CC(C)C)C[C@H](Cc1ccccc1)O2`
Output line: > 6.00
